Taken from ChEMBL document CHEMBL1154378.

Measured Ratio Ki values are reported for all entries that follow.
# Organism: Homo sapiens
# ASSAY SUMMARY: Selectivity, ratio of Ki for human histaminee H4 receptor to Ki for human histamine H3 receptor

| COMPOUND | Ratio Ki |
| --- | --- |
| CCCCC[C@@H](C)NC(=O)OCCCc1c[nH]cn1 | 16 |
| CCCC[C@@H](C)NC(=O)OCCCc1c[nH]cn1 | 22 |
| CCCCC(C)NC(=O)OCCCc1c[nH]cn1 (racemic) | 24 |

====

Measured Ki values are reported for all entries that follow.
# TARGET OR SYSTEM: Histamine H4 receptor (Homo sapiens)
# Sequence (Q9H3N8 whole entry): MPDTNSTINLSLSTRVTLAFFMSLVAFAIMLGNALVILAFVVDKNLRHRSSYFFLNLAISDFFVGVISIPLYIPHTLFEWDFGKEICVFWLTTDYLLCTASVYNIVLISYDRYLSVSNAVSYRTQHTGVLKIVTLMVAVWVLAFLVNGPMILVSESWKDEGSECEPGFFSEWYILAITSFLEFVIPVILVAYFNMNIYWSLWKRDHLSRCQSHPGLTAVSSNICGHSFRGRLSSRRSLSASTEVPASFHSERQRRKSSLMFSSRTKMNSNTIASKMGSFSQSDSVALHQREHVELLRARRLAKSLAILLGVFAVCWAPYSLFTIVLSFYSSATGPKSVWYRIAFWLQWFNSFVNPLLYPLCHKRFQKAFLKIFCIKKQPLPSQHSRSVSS
# ASSAY SUMMARY: Displacement of [3H]histamine from human histamine H4 receptor expressed in SF9 cells coexpressing Galphai2, Gbeta1gamma2
READOUT LABEL: Ki

| COMPOUND | MEASUREMENT |
| --- | --- |
| CCCC[C@@H](C)NC(=O)OCCCc1cnc[nH]1 | 426 nM |
| CCCC(C)CNC(=O)OCCCc1c[nH]cn1 (racemic) | 162 nM |
| CCCCC(C)NC(=O)OCCCc1c[nH]cn1 (racemic) | 695 nM |
| CCCCC(CC)CNC(=O)OCCCc1cnc[nH]1 (racemic) | 779 nM |
| CC[C@H](C)CNC(=O)OCCCc1c[nH]cn1 | 118 nM |
| CCCCC[C@H](C)NC(=O)OCCCc1cnc[nH]1 | 1460 nM |
